Provide the reported IC50 of each item.
- System: MCF-7 cell line
- PROTOCOL_SUMMARY: MTT cytotoxicity assay, MCF-7
- Format: cell-based
- EXPERIMENTAL_PARAMETERS: Homo sapiens, MCF7, 72 h, average of two determinations, NA = No Activity
Give bare numbers, in µM.

>>> value_observed("Fc1ccc(C2=NN(c3nc4c(c(N5CCOCC5)n3)CSCC4)[C@@H](c3ccc(Br)cc3)C2)cc1 (racemic)")
28.2
>>> value_observed("O=S1(=O)CCc2nc(N3N=C(c4ccc(F)cc4)C[C@@H]3c3ccc(Br)cc3)nc(N3CCOCC3)c2C1 (racemic)")
46.6
>>> value_observed("O=S1(=O)CCc2nc(N3N=C(c4ccccc4)C[C@@H]3c3ccccc3)nc(N3CCOCC3)c2C1")
41.2
>>> value_observed("Cc1ccc(C2=NN(c3nc4c(c(N5CCOCC5)n3)CS(=O)(=O)CC4)[C@@H](c3ccc(Cl)c(Cl)c3)C2)cc1")
42.5

Note: attention shifts to another entry.
Look up IC50 for this compound: `Brc1ccc([C@H]2CC(c3ccccc3)=NN2c2nc3c(c(N4CCOCC4)n2)CSCC3)cc1`
35.7

Data provenance is paper PMC6150310.
